Test system: P. falciparum stage V gametocytes
Set-up: BacTiter-Glo ATP luminescence viability of purified stage V gametocytes in 384-well plates, per cent inhibition versus DMSO
Conditions: 48 h, 5 µM; inhibitor
Screen size: about 13,000 compounds; about 3,200 (25%) showed an effect of 50% or more. The list shows a part of the results.
Binary classification by % Inhibition, with 10% as an inclusive lower bound for Met; all other cases are Not met.

| compound | qualitativeLabel |
| --- | --- |
| CS(=O)(=O)Nc1cccc(-c2cnc3[nH]cc(-c4ccc(C(=O)O)cc4)c3c2)c1 [TCMDC-136215] | Not met |
| COc1ccc(CCNc2nc(NCCc3cnc[nH]3)nc(NCc3cccc4ccccc34)n2)cc1OC [TCMDC-139244] | Met |
| COC(=O)c1cc(OC)c(OC)cc1NC(=O)NC12CC3CC(CC(C3)C1)C2 [TCMDC-124384] | Not met |
| CC(=O)c1ccc(NC(=O)Nc2ccc3nccc(N4CCN(C)CC4)c3c2)cc1 [TCMDC-139331] | Not met |
| Cc1cc(=O)c(-c2ccc(Sc3ccc(Cl)cc3)cc2)c(C)[nH]1 [TCMDC-137403] | Met |
| O=C(Nc1ccc(-c2cccc(-c3nc4ccc(F)cc4[nH]3)c2)cc1)Nc1ccsc1 [TCMDC-133218] | Not met |
| COc1ccc2nccc([C@@H](O)CN3CCC(NCc4ccc5nc[nH]c(=O)c5c4)CC3)c2c1 [TCMDC-140981] | Not met |
| Cc1cccn2c(=O)c3cc(C(=O)NCCN4CCOCC4)c(=N)n(CCc4ccccc4)c3nc12 [TCMDC-124570] | Not met |
| CCOc1cc(Cc2cnc(N)nc2N)cc(OCC)c1O [TCMDC-137181] | Met |
| CCN(CC)CCNc1ccc(Nc2ccnc3cc4ccccc4cc23)cc1 [TCMDC-123498] | Met |
| Cc1ccc(O)cc1Nc1ccnc2ccc(C(C)(C)C)cc12 [TCMDC-138885] | Not met |
| CCCS(=O)(=O)c1nc(S(=O)(=O)c2ccc(Cl)cc2)c(N2CCCCC2)s1 [TCMDC-124768] | Not met |
| NCCNC(=O)c1ccc(-c2cnc3[nH]cc(-c4ccc(C(N)=O)cc4)c3c2)cc1 [TCMDC-132359] | Met |
| c1ccc(CNc2nc(NCCc3cnc[nH]3)nc(NCc3cccc4ccccc34)n2)cc1 [TCMDC-139737] | Not met |
| COc1cc(Cl)c(C)cc1-n1cc(C(=O)c2cc(Br)ccc2O)cc(C#N)c1=O [TCMDC-123630] | Not met |
| COc1cccc(C2=CC(C)(C)Oc3cc(OCCN(C)C)ccc32)c1 [TCMDC-131403] | Not met |
| CC(=O)c1ccc2nc[nH]c(=O)c2c1 [TCMDC-138172] | Met |
| CC(C)(C)c1ccc2nccc(Nc3cccc(O)c3)c2c1 [TCMDC-138884] | Met |

---

Property: % Inhibition; scope: individual compounds
System: P. falciparum stage V gametocytes
Set-up: BacTiter-Glo ATP luminescence viability of purified stage V gametocytes in 384-well plates, per cent inhibition versus DMSO
Details: 48 h, 5 µM; inhibitor
Screen size: about 13,000 compounds; about 3,200 (25%) showed an effect of 50% or more. Some of the results follow.

| compound | unitText | % Inhibition |
| --- | --- | --- |
| CC(=O)Oc1c(Br)c(C)nc(C)c1-c1ccc(Oc2ccc(OC(F)(F)F)cc2)cc1 [TCMDC-137383] | % | 72.41 |
| Cc1nc(C)c(-c2ccc(Oc3ccc(OC(F)(F)F)cc3)cc2)c(OC(=O)c2ccccc2)c1Cl [TCMDC-137380] | % | 76.96 |
| O=C(Nc1ccccc1F)NC1CCN(c2ccnc(Nc3ccc(F)cc3)n2)C1 (stereo not shown) [TCMDC-133603] | % | -76.2 |
| N=C(N)NN=CC(=O)Nc1ccc(C(F)(F)F)cc1 [TCMDC-137560] | % | 10.99 |
| Cc1[nH]c(C)c(Cc2ccc(Oc3ccc(OC(F)(F)F)cc3)cc2)c(=O)c1Br [TCMDC-134530] | % | -23.78 |
| COc1cc2c(cc1O)[C@@H]1[C@H](O)[C@@H](O)C=C3CCN(C2)[C@H]31 [TCMDC-132036] | % | 63.23 |
| Cc1nc(C)c(-c2ccc(Oc3ccc(OC(F)(F)F)cc3)cc2)c(OC(=O)c2ccc(CN(C)C)cc2)c1Cl [TCMDC-137382] | % | 68.19 |
| Cc1cc(C(F)(F)F)n2nc(C(=O)N(Cc3cncn3Cc3ccccc3F)CC3CC3)cc2n1 [TCMDC-132463] | % | -10.43 |
| CN(C)Cc1c(O)ccc2[nH]c(-c3ccc(OC(F)(F)F)cc3)nc12 [TCMDC-136529] | % | -83.05 |
| Cc1[nH]c(C)c([N+](=O)[O-])c(=O)c1-c1ccc(Oc2ccc(OC(F)(F)F)cc2)cc1 [TCMDC-135555] | % | -1.899 |

---

Measured % Inhibition of individual entries
Test system: P. falciparum stage V gametocytes
Design: BacTiter-Glo ATP luminescence viability of purified stage V gametocytes in 384-well plates, per cent inhibition versus DMSO
Conditions: 48 h, 5 µM; inhibitor
Out of some 13,000 compounds screened, about 3,200 (25%) showed an effect of 50% or more. The list shows a part of the results.
measuredEndpoint: % Inhibition (%)

| compound | targetOfAssay | measuredEndpoint | reportedMeasurement |
| --- | --- | --- | --- |
| O=C(Nc1cccc(OC2CCN(Cc3ccsc3)CC2)c1)c1ccc(C(F)(F)F)cc1 [TCMDC-133737] | P. falciparum stage V gametocytes | % Inhibition | -11.34 |
| CN(C)CCCOC(=O)c1cc2cc(-c3ccccc3)ccc2n1S(=O)(=O)Cc1ccccc1 [TCMDC-139121] | P. falciparum stage V gametocytes | % Inhibition | 46.9 |
| Cc1cc(-c2ccc3c(c2)CCN(CCC2CCC(NC(=O)/C=C/c4ccc(F)cc4)CC2)CC3)on1 (stereo not shown) [TCMDC-139926] | P. falciparum stage V gametocytes | % Inhibition | -90.16 |
| COc1cccc(C(=O)Nc2ccc(-c3nc4ccccc4[nH]3)cc2)c1 [TCMDC-124429] | P. falciparum stage V gametocytes | % Inhibition | 5.991 |

---

Test system: P. falciparum stage V gametocytes
Design: BacTiter-Glo ATP luminescence viability of purified stage V gametocytes in 384-well plates, per cent inhibition versus DMSO
Conditions: 48 h, 5 µM; inhibitor
Among all 13,000 compounds or so, about 3,200 (25%) showed an effect of 50% or more. Some of the results follow.
Parameter % Inhibition: see the listing below.
measuredEndpoint: % Inhibition (%)

| molecule | targetOfAssay | reportedMeasurement |
| --- | --- | --- |
| N#CCSc1nnc(-c2ccccc2)c2ccccc12 [TCMDC-123867] | P. falciparum stage V gametocytes | 67.4 |
| OC1CCCN(Cc2ccc(-c3ccc(-c4nc5ccc(F)cc5[nH]4)s3)cc2)C1 (stereo not drawn) [TCMDC-133821] | P. falciparum stage V gametocytes | -16.69 |
| COc1ccc2c(c1)C(C)(CCCN(C)C)C(=O)N2C (stereo not drawn) [TCMDC-138945] | P. falciparum stage V gametocytes | 13.31 |
| COc1ccc2nccc([C@@H](O)CN3CCC(NC(=O)c4cc5cccnc5[nH]4)CC3)c2c1 [TCMDC-140768] | P. falciparum stage V gametocytes | 6.193 |
| N#Cc1cccc(NC(=O)Nc2ccc3c(c2)CN(Cc2c[nH]c4ncccc24)C3)c1 [TCMDC-141757] | P. falciparum stage V gametocytes | 5.913 |
| O=c1cc(NCCCNC2CCOc3c(Cl)cc(Cl)cc32)[nH]c2ccccc12 (stereo not drawn) [TCMDC-139477] | P. falciparum stage V gametocytes | 33.79 |
| CS(=O)(=O)NCCCNCc1cccc(-c2ccc(-c3nc4ccccc4[nH]3)s2)c1.O=C(O)C(F)(F)F [TCMDC-133088] | P. falciparum stage V gametocytes | 4.156 |
| O=C(O)C1Cc2c([nH]c3ccccc23)C(c2ccc(Cl)cc2Cl)N1 (stereo not drawn) [TCMDC-125815] | P. falciparum stage V gametocytes | 25.42 |
| CCOCc1cnc(C)nc1CNC(=O)c1c(C)[nH]c2ccc(C)cc12 [TCMDC-125780] | P. falciparum stage V gametocytes | 11.26 |

---

Test system: P. falciparum stage V gametocytes
Design: BacTiter-Glo ATP luminescence viability of purified stage V gametocytes in 384-well plates, per cent inhibition versus DMSO
Conditions: 48 h, 5 µM; inhibitor
Screen size: about 13,000 compounds; about 3,200 (25%) showed an effect of 50% or more. This is one part of the list.
# % Inhibition per record follows
measuredEndpoint: % Inhibition (%)

| compound | unitText | reportedMeasurement |
| --- | --- | --- |
| N#Cc1cccc(Nc2nccc(NCC(O)c3ccc(C(F)(F)F)cc3)n2)c1 (centres unmarked) [TCMDC-136590] | % | 5.433 |
| Nc1nc2ccc(CN(C=O)c3ccc(C(=O)N[C@@H](CCC(=O)O)C(=O)O)cc3)cc2c(=O)[nH]1 [TCMDC-132048] | % | 3.734 |
| O=C(C1CC1)N1c2ccccc2CCc2ccccc21 [TCMDC-123880] | % | 17.87 |
| O=C(NC1CCC(CN2CCC(c3c[nH]c4ccccc34)CC2)CC1)c1cc2cccc([N+](=O)[O-])c2[nH]1 (centres unmarked) [TCMDC-139879] | % | 95.83 |
| Cc1cc(-c2cccc3c(C(=O)N4CCc5cc6nccc(N7CCN8CCC[C@H]8C7)c6cc54)cccc23)cc(C)n1 [TCMDC-139793] | % | 31.07 |
| CC(CNC(=N)c1cccc(C(=N)NCC(C)Oc2cccc(C3CCCCC3)c2)n1)Oc1cccc(C2CCCCC2)c1.Cl (centres unmarked) [TCMDC-137455] | % | 116.2 |
| CN1CCCN(c2ccnc3cc4c(cc23)N(C(=O)c2ccc(C(F)(F)F)cc2)CC4)CC1 [TCMDC-140243] | % | 67.52 |
| COc1ccc(Cc2c(N)nc3nc(N)nc(N)c3c2C)cc1 [TCMDC-138061] | % | 18.63 |
| Cc1cc(-c2cccc3c(C(=O)N4CCc5cc6nccc(N7CCCN(C)CC7)c6cc54)cccc23)cc(C)n1 [TCMDC-140244] | % | 100.8 |
| O=[N+]([O-])c1cccc(NC(=S)N2CCCN(Cc3ccc(F)cc3F)CC2)c1 [TCMDC-141015] | % | 78.9 |
| CN1CCN(c2ccnc3cc4c(cc23)N(C(=O)Nc2ccc(-c3ccncc3)c3ccccc23)CC4)CC1 [TCMDC-139371] | % | 4.895 |
| CN1CCN(c2ccnc3ccc(NC(=O)c4ccc(Cl)c(Cl)c4)cc23)CC1 [TCMDC-139350] | % | 4.304 |
| CN1CCCN(c2ccnc3cc4c(cc23)N(C(=O)c2ccc(Cl)cc2Cl)CC4)CC1 [TCMDC-140241] | % | 126.7 |
| Cc1cc(S(=O)(=O)N2CCCCC(c3ccc(C(F)(F)F)cc3)=N2)c(Cl)cc1Cl [TCMDC-134540] | % | -43.69 |

src = paper PMC4552634
